The measurements presented in this section are drawn from ChEMBL document CHEMBL3856243.

Target: Chromobox protein homolog 8 (Homo sapiens)
Sequence (Q9HC52 whole entry, the tested form may be a part): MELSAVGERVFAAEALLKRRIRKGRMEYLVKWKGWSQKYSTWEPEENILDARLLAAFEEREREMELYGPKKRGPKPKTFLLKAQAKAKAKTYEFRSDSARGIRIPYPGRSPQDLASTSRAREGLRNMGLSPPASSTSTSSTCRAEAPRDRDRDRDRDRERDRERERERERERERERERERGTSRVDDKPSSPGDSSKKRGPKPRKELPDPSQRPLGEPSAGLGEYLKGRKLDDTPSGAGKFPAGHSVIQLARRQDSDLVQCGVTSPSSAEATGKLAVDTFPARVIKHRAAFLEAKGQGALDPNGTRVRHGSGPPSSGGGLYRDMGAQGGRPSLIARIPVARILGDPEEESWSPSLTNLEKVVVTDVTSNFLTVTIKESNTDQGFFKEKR
Assay: Antagonist activity at recombinant human N-terminal His-tagged CBX8 chromodomain (8 to 61 residues) expressed in Escherichia coli Rosetta BL21(DE3)pLysS using biotin-labeled UNC4195 measured after 30 mins by AlphaScreen assay
Numbered stars: 1 amine (or outer) side, 2 acyl side, 3 side chain; on linkers, the order of the positions; unused ones are H or OH. Square brackets hold non-standard residues; d marks the D form. Peptide text beside a SMILES is read from it. * marks the point of attachment. X5 = O=C([C@H](CCCCNC1C2CC3CC(C2)CC1C3)N[*:1])[*:2]; X8 = O=C([C@H](CCCCNC1CC2CCC1C2)N[*:1])[*:2]; Phe(4-CH2NH2) = NCc1ccc(C[C@H](N)C(=O)O)cc1; Benzoyl(4-tBu) = CC(C)(C)c1ccc(C(=O)*)cc1; Lys(Et2) = CCN(CC)CCCC[C@H](N)C(=O)O; Bz = O=C(c1ccccc1)*
Can you tell me IC50 for the items I'm about to list?

Prompt: Need IC50, item COC(=O)[C@H](CO)NC(=O)[C@H](CCCCNC1C2CC3CC(C2)CC1C3)NC(=O)[C@H](CC(C)C)NC(=O)[C@H](C)NC(=O)[C@H](Cc1ccccc1)NC(=O)CNC(=O)c1ccccc1 (stereo partly drawn) (Bz-GFAL[X5]S-OMe)
Response: > 60 µM

Prompt: Same question for CCN(CC)CCCC[C@H](NC(=O)[C@H](CC(C)C)NC(=O)[C@H](C)NC(=O)[C@H](Cc1ccc(CN)cc1)NC(=O)c1ccc(C(C)(C)C)cc1)C(=O)N[C@@H](CO)C(=O)OC ({Benzoyl(4-tBu)}-[Phe(4-CH2NH2)]AL[Lys(Et2)]S-OMe) please.
Response: 2.4 µM

Prompt: Continue with COC(=O)[C@H](CO)NC(=O)[C@H](CCCCNC1CC2CCC1C2)NC(=O)[C@H](CC(C)C)NC(=O)[C@H](C)NC(=O)[C@H](Cc1ccccc1)NC(=O)CNC(=O)c1ccccc1 (stereo partly drawn) (Bz-GFAL[X8]S-OMe)
Response: > 60 µM
